molecular target: T1, human uPAR displayed on the surface of MDA-MB-231 cells (human, UniProt Q03405 23-305); experiment: flow cytometry on MDA-MB-231 cells
T1 construct: whole, on cells; also called cell-surface uPAR; cellular uPAR
T1 sequence (Q03405 23-305): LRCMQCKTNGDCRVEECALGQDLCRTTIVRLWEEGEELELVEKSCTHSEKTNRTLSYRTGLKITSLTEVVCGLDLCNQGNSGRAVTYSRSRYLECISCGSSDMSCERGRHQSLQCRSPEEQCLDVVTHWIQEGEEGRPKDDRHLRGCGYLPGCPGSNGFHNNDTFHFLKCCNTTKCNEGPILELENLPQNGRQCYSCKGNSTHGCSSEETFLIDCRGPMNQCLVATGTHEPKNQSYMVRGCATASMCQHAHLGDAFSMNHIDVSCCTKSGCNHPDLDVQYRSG
Assign EC50 to each entry below.
Numbers only, in µg/mL.

1) 11857 HC1 + LC2 (humanized) (antibody, V domains shown, detected with anti-human Fc antibody) VH: EVQLVQSGAEVKKPGATVKISCKVSGYTFTDYYMNWVQQAPGKSLEWMGNINPNNGGTDYNQKFQGRVTITADKSTSTAYMELSSLRSEDTAVYYCARSYGSRFPYWGLGTLVTVSS VL: DIQMTQSPSSLSASVGDRVTITCRASQDITNYLSWYQQKPGGTVKLLIFYTAVLQSGFPSRFSGSGSGADFTLTISSLQPEDVATYYCQQGHTLPWTFGGGTKVEIK: 0.223

Now for another entry.
Problem: Annotate the binder 3159 HC2 + LC3 (humanized) (antibody, V domains shown, detected with anti-human Fc antibody) VH: QVTLKESGPVLVKPTETLTLTCTVSGFSLSTSGMGVSWIRQPPGKGLEWLAHIYWDDDKRYSPSLKSRLTISKDASKDQVVLTMTNMDTVDTATYYCGRRVRNYFSGTSYWYFDVWGTGTLVTVSS VL: DIVMTQSPLSLPVTPGEPASISCRSSQNILHRTGNTYLDWYLQKPGQSPQLLIYKVSNRFSGVPDRFSGSGSGTDFTLKISRVEAEDVGVYYCFQGSYVPFTFGQGTKLEIK with its measured EC50.
Solution: 0.205

Each recorded value in this set is attributed to patent US20260116983A1.
